Exercise: for every item that follows, state its recorded cell viability.
Test system: HCT116
experimental-protocol: cell viability (CellTiter-Glo) relative to plate median (fraction of plate median); higher = more viable cells
measurement-context: 10 µM; treatment time 24 h; reporter: TCF4/Wnt
Structures can show the parent of a compound that is named as a salt.
Reply with the value as a number alone.

Response field cell viability (HCT116) for item COc1cc2ncnc(Nc3ccc(F)c(Cl)c3)c2cc1NC(=O)/C=C/CN1CCCCC1 : 0.993

Response field cell viability (HCT116) for item FC(F)(F)c1ccc(/C=C/c2nc(COc3ccc(CCCCn4ccnn4)cc3)co2)cc1 : 0.771

Response field cell viability (HCT116) for item CN(C)c1ccc(-c2nc3ncc(Cl)c(N4CCN(CC(=O)Nc5nccs5)CC4)c3[nH]2)cc1 : 1.14

Response field cell viability (HCT116) for item COc1cc2ncnc(Nc3cccc(Br)c3)c2cc1OC : 1.06

Response field cell viability (HCT116) for item Cc1ccc(Nc2nccc(N(C)c3ccc4c(C)n(C)nc4c3)n2)cc1S(N)(=O)=O [Pazopanib HCl] : 1.06

Response field cell viability (HCT116) for item Cc1ccc(-n2nc(C(C)(C)C)cc2NC(=O)Nc2ccc(OCCN3CCOCC3)c3ccccc23)cc1 : 1.06

Response field cell viability (HCT116) for item N=C(N)NC(=N)NCCc1ccccc1 [Phenformin hydrochloride] : 1.21

Response field cell viability (HCT116) for item CCCS(=O)(=O)Nc1ccc(F)c(C(=O)c2c[nH]c3ncc(Cl)cc23)c1F : 1.12

Response field cell viability (HCT116) for item COc1ccc(S(=O)(=O)N(C(C)=O)c2ccccc2/C=C/c2cc[n+]([O-])cc2)cc1 : 0.619
